Task for the reader: assign each of the following molecules its reported melting point.
One number for each entry, in °C.

Sample answers from the record:
molecule: COc1cc2c(c(OC)c1OC)-c1ccc(OC)c(=O)cc1[C@@H](NC(C)=O)CC2
unit_name: °C
melting point: 156

molecule: Clc1c(Cl)c(Cl)c2c(oc3c(Cl)c(Cl)c(Cl)c(Cl)c32)c1Cl
unit_name: °C
melting point: 258

molecule: CN(C)c1cccc2c(S(N)(=O)=O)cccc12
unit_name: °C
melting point: 220

molecule: CC(C(=O)O)c1ccc(N2Cc3ccccc3C2=O)cc1 (stereo not given)
unit_name: °C
melting point: 214

For every listed record, write down its melting point.
1. O=c1nn[nH]c2ccccc12
2. O=C(O)CCCc1ccccc1
3. CCc1ccccc1-c1ccccc1

Solution:
1: 217; 2: 52; 3: -6
